# Test target: human activated kallikrein enzyme (Homo sapiens (Human), UniProt P03952)
# Sequence (P03952 391-638): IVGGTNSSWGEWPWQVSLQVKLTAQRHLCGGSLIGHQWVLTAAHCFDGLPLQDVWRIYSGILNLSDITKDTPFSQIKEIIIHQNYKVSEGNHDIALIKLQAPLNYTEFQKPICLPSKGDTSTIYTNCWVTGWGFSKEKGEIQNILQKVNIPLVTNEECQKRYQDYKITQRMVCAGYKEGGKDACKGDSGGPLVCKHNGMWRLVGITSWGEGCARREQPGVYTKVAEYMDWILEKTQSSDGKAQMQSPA
# Sequence (P03952 20-390 partner): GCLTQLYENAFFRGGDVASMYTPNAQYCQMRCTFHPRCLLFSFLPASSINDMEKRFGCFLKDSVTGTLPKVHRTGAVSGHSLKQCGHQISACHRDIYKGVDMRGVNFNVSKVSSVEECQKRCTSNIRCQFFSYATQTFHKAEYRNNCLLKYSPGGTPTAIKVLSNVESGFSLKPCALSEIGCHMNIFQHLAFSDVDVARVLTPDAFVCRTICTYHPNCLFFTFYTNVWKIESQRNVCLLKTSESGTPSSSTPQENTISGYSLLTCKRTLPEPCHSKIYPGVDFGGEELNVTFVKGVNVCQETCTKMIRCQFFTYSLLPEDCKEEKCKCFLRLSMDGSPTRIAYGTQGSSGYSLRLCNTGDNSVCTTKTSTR
# Test name: Plasma kallikrein inhibition assay with fluorogenic peptide substrate, 500 pM activated kallikrein format
# Format: biochemical
# Condition: comparative compounds (Table III); 500 pM activated kallikrein format; read-out: Primary Dose Response Assay: Average EC50
pEC50: −log10 of the molar value.
Reported pEC50 values for the following compounds.

// worked examples, pEC50 included
Exercise: Quick one: pEC50 of "NC(=O)c1cnn(Cc2cn3cc(C4CC4)ccc3n2)c1" ?
Solution: < 5.15

Exercise: Another compound to look at: "O=C(NCc1ncn2ccc(Cl)c(F)c12)c1cn(Cc2cn3ccccc3n2)nn1"
Solution: 7.00 to 8.00

Read the next record carefully.
Exercise: # input compound: "O=C(NCc1ncn2ccc(Cl)c(F)c12)c1cn(Cc2ccc3nccnc3c2)nn1" ; wanted: its pEC50
Solution: 7.00 to 8.00

----------
Reported pEC50 values for the following compounds.
# Test target: human activated kallikrein enzyme (Homo sapiens (Human), UniProt P03952)
# Test name: Plasma kallikrein inhibition assay with fluorogenic peptide substrate, 500 pM activated kallikrein format
# Assay type: biochemical
# Condition: 500 pM activated kallikrein; 300 uM Pro-Phe-Arg-7-amido-4-methylcoumarin substrate; 30 min preincubation, 10 min reaction at RT; read-out: Primary Dose Response Assay: Average EC50
pEC50: −log10 of the molar value.

Exercise: Quick check: pEC50 on human activated kallikrein enzyme (Homo sapiens (Human), UniProt P03952), item "Cc1cc(N)nc(C)c1CNS(=O)(=O)c1cnn(Cc2cn3cc(C4CC4)ccc3n2)c1" ?
Solution: 5.70 to 7.00

Exercise: Next up: "Cc1[nH]nc2c1CC[C@H]2NC(=O)c1cn(Cc2cn3cc(C4CC4)ccc3n2)nn1"
Solution: 8.00 to 9.00

Exercise: What about this compound? COc1ccc(-n2cnnn2)c(CNC(=O)c2cn3c(n2)CCC3c2cn3cc(C4CC4)ccc3n2)c1F (stereo not shown)
Solution: ≥ 9.00

Others:
Exercise: Notebook: pull reported pEC50 for human activated kallikrein enzyme (Homo sapiens (Human), UniProt P03952), entry "COc1ccc(Br)c(CNC(=O)c2cn(Cc3cn4cc(C5CC5)ccc4n3)nn2)c1F"
Solution: 7.00 to 8.00

----------
The compounds listed here are annotated with their EC50.
# Test target: human activated kallikrein enzyme (Homo sapiens (Human))
# Test name: Plasma kallikrein inhibition assay with fluorogenic peptide substrate, 500 pM activated kallikrein format
# Assay type: biochemical
# Condition: 500 pM activated kallikrein; 300 uM Pro-Phe-Arg-7-amido-4-methylcoumarin substrate; 30 min preincubation, 10 min reaction at RT; read-out: Primary Dose Response Assay: Average EC50

Exercise: Which value of EC50 has been reported for "COC(=O)c1ncc(-c2ccc(OC)c(F)c2CNC(=O)c2cn(Cc3cn4cc(C5CC5)ccc4n3)nn2)cn1" in the records?
Solution: 1 to 10 nM

---
Exercise: // query EC50 value for entry CC(NS(=O)(=O)c1cnn(Cc2cn3cc(C4CC4)ccc3n2)c1)c1ccc(Cl)cc1 (stereo not shown)
Solution: > 7100 nM

Exercise: Next up: "COc1ccc(-n2cncn2)c(CNC(=O)c2cn(Cc3cn4cc(C5CC5)ccc4n3)nn2)c1F"
Solution: ≤ 1 nM

Exercise: Follow-up entry: "COc1ccc(-n2cnnn2)c(CNC(=O)c2cn(Cc3cn4cc(C5CC5)cc(CC5COC5)c4n3)nn2)c1F"
Solution: ≤ 1 nM

Values compiled from patent US11787796B2.
